target: Full length human SIRPα v1 with beta-gal fragment (ED) at its C-terminal, in K562 cells (human, UniProt P78324 31-504); experiment: cell-based or functional assay
Sequence (P78324 31-504): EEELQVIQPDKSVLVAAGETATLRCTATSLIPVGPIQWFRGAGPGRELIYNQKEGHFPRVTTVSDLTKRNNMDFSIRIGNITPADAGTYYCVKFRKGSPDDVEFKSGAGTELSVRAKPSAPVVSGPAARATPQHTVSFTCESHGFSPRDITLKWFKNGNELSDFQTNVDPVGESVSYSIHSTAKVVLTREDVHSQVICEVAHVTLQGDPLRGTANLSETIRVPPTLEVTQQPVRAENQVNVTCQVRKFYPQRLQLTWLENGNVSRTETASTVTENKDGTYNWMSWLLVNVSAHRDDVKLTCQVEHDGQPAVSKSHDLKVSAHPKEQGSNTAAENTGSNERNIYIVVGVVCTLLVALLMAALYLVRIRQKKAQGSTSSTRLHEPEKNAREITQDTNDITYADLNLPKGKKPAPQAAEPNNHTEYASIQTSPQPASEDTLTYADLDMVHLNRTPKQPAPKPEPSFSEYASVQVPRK
MEASUREMENT_KIND: IC50 (SHP-1 recruitment blocking) (nM)
Write down the numeric answer in nM and omit the unit.

Task: Retrieve IC50 (SHP-1 recruitment blocking) measured for Anti-SIRPα antibody C42 (antibody, human IgG4, V domains shown, Mouse variable regions; also called 042c) VH: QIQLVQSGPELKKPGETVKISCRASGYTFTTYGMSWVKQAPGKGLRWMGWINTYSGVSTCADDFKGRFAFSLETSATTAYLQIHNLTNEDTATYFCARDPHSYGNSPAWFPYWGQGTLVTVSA VL: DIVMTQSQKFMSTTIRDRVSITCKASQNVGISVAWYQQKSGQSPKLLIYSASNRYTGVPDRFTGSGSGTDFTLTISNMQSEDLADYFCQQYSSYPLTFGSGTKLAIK and print it.
Output: 0.99
